Overview of recorded IC10 haemolysis for various compounds
Tested on: human erythrocytes
Assay: in vitro
Type: cell-based
Conditions: human erythrocytes
Peptide text beside a SMILES is read from it.
The response must be a number in µM with no trailing unit.

CCCC[C@H](NC(=O)[C@H](CCCCN)NC(=O)[C@H](CCCCN)NC(=O)[C@@H](N)CCCCN)C(=O)N[C@@H](Cc1cccc2ccccc12)C(=O)N[C@@H](Cc1ccccc1)C(=O)N[C@@H](Cc1cccc2ccccc12)C(N)=O [Compound 20] (HELM PEPTIDE1{K.K.K.[Nle].[O=C([C@H](Cc1cccc2ccccc12)N[*:1])[*:2]].F.[O=C([C@H](Cc1cccc2ccccc12)N[*:1])[*:2]].[am]}$$$$V2.0)    91.3

[ask] What IC10 haemolysis value was documented for this compound, CC(C)C[C@@H](NC(=O)[C@H](CCCCN)NC(=O)[C@H](CCCCN)NC(=O)[C@@H](N)CCCCN)C(=O)N[C@H](Cc1ccc2ccccc2c1)C(=O)N[C@H](Cc1ccc(O)cc1)C(=O)N[C@H](Cc1ccc2ccccc2c1)C(N)=O [Compound 24] (HELM PEPTIDE1{K.K.K.[dL].[O=C([C@@H](Cc1ccc2ccccc2c1)N[*:1])[*:2]].[dY].[O=C([C@@H](Cc1ccc2ccccc2c1)N[*:1])[*:2]].[am]}$$$$V2.0) ?
[reply] 76.72

----------
Overview of recorded hemolysis at 1 h, 150 µM for various compounds
Test: in vitro
Assay type: cell-based, dog
Settings: dog
Square brackets hold non-standard residues; d marks the D form. Peptide text beside a SMILES is read from it. N(1-naphthylmethyl)Gly = O=C(O)CNCc1cccc2ccccc12; 2Nal = N[C@@H](Cc1ccc2ccccc2c1)C(=O)O; Nphe = O=C(O)CNCc1ccccc1; NBuGly = CCCCNCC(=O)O; Nlys = NCCCCNCC(=O)O

CC(C)C[C@@H](NC(=O)[C@@H](Cc1ccc2ccccc2c1)NC(=O)[C@@H](Cc1ccccc1)NC(=O)[C@H](N)Cc1ccc2ccccc2c1)C(=O)N[C@@H](CCCCN)C(=O)N[C@@H](CCCCN)C(=O)N[C@@H](CCCCN)C(N)=O [Compound 4] (HELM PEPTIDE1{[N[C@H](Cc1ccc2ccccc2c1)C(=O)[*:2]].[dF].[O=C([C@@H](Cc1ccc2ccccc2c1)N[*:1])[*:2]].[dL].K.K.K.[am]}$$$$V2.0)    < 8%
CCCCN(CC(=O)N[C@@H](CCCCN)C(=O)N(CC(=O)N(CC(=O)N(CC(N)=O)Cc1cccc2ccccc12)Cc1ccccc1)Cc1cccc2ccccc12)C(=O)[C@H](CCCCN)NC(=O)[C@@H](N)CCCCN [Compound 14] (H-KK[NBuGly]K[N(1-naphthylmethyl)Gly][Nphe][N(1-naphthylmethyl)Gly]-NH2)    28.1%
CCCC[C@H](NC(=O)[C@H](CCCCN)NC(=O)[C@H](CCCCN)NC(=O)[C@@H](N)CCCCN)C(=O)N[C@@H](Cc1cccc2ccccc12)C(=O)N[C@@H](Cc1ccccc1)C(=O)N[C@@H](Cc1cccc2ccccc12)C(N)=O [Compound 20] (HELM PEPTIDE1{K.K.K.[Nle].[O=C([C@H](Cc1cccc2ccccc12)N[*:1])[*:2]].F.[O=C([C@H](Cc1cccc2ccccc12)N[*:1])[*:2]].[am]}$$$$V2.0)    36%

[ask] What hemolysis at 1 h, 150 µM value was documented for this compound, CC(C)C[C@H](NC(=O)CN(CCCCN)C(=O)CN(CCCCN)C(=O)CNCCCCN)C(=O)N[C@@H](Cc1ccc2ccccc2c1)C(=O)N[C@@H](Cc1ccccc1)C(=O)N[C@@H](Cc1ccc2ccccc2c1)C(N)=O [Compound 23] (H-[Nlys][Nlys][Nlys]L[2Nal]F[2Nal]-NH2) ?
[reply] 35.1%

The reported measurements were obtained from paper PMC7414031.
